Entry source: the supplement of paper PMC11780869

For each record, write down the corresponding cleaved RNA product abundance.
Test system: Bacillus subtilis
measurement.protocol: cleaved RNA product abundance (RNA/gDNA barcode ratio) relative to median wild-type variant (ratio to wild type); higher = more accumulation of the downstream cleavage product
condition.parameters: experiment (reporter, strain, medium): exp 4a: truncated aprE reporter, strain BJT201 with 2% xylose (RNase J1 expressed); cleavage site: cggR-gapA (positions -7 to +36 mutated)
One number for each entry.

Examples from the recorded data:
# ordered.residues, cleaved RNA product abundance
rows = [
    ("ACAGACGAAGGAGCCGCAAAGAAGTTATTAAGGTATGAATAATCCCTCATTATAAATATCTCTCACTTATTTAAA", 0.107),
    ("ACAGACGAAGGAGCCGCAAATAAGTTATTAAGGGATGAATAATCCCTCATTATAAATATCTCTCACTTATTTAAA", 0.356),
    ("ACAGACGAAGGAGCCGCAAAGAAGTTATTACGCGATGAATAATCCCTCAATATAAATATCTCTCACTTATTTAAA", 0.0746),
]

Each sequence below has a reported value. Please supply its cleaved RNA product abundance.
1. ACAGACGAAGGAGCCGCAAAGAAGTTATTAAGGGAAGAATAATCCCTCGATATAAATATCTCTCACTTATTTAAA
2. ACAGACGAAGGAGCCGCAAAGAAGTAAATAAGGGATGAATAATCCCTCAATATAAATATCTCTCACTTATTTAAA
3. ACAGACGAAGGAGCCGCAAAGAAGTTATTAAGGGTTGAATAATCCCTCAAAATAAATATCTCTCACTTATTTAAA
4. ACAGACGAAGGAGCCGCAAATAAGTTATTAATGGATGAATAATCCCTCATTATAAATATCTCTCACTTATTTAAA
5. ACAGACGAAGGAGCCGCAAAGAAGTTATTAAGGGATCAATAATCACTCAATATAAATATCTCTCACTTATTTAAA

a:
[0.521, 0.258, 0.222, 0.135, 0.0833]

Each sequence below has a reported value. Please supply its cleaved RNA product abundance.
1. ACAGACGAAGGAGCCGCAAAGAAGTTATTAAGGGTTGAATAATCCCTCAATATAAATTTCTCTCACTTATTTAAA
2. ACAGACGAAGGAGCCGCAAAGAATTTATTAAGGGACGAATAATCCCTCAATATAAATATCTCTCACTTATTTAAA
3. ACAGACGAAGGAGCCGCAAAGAACTTATTAAGGGATGAATAATCCTTCAATATAAATATCTCTCACTTATTTAAA
4. ACAGACGAAGGAGCCGCAAAGAAGTTATTAAGGGATGAATAATCAGTCAATATAAATATCTCTCACTTATTTAAA
5. ACAGACGAAGGAGCCGCAAAGAAGTTATTAAGAGATGAATAATCCCTCAAGATAAATATCTCTCACTTATTTAAA
6. ACAGACGAAGGAGCCGCAAAGAAGTTATTAAGGGATCAATAATCCCTCAATATACATATCTCTCACTTATTTAAA

a:
1: 0.436; 2: 0.605; 3: 0.342; 4: 0.0967; 5: 0.112; 6: 0.736

q: Fill in: cleaved RNA product abundance of `ACAGACGAAGGAGCCGCAAAGAAGTTATTAAGTGATGAACAATCCCTCAATATAAATATCTCTCACTTATTTAAA` is ___
a: 0.109
